Tested on: 168753-222-R-J1-PDC complex spheroid viability;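 note: viability measured after seven days of drug exposure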
Experiment: Anticancer human tumor 168753-222-R-J1-PDC patient-derived bladder carcinoma cell line growth inhibition [CLK]
Conditions: curve of first compound; second compound 1 µM
pIC50: −log10 of the molar value.
READOUT: pIC50

INSERT INTO measurements (compound, target_or_system, result_value) VALUES
  ('NC(=O)C(=Cn1cnc(-c2cc(C(F)(F)F)cc(C(F)(F)F)c2)n1)c1cncnc1 + CN1CCN(c2cc(C(=O)Nc3cc4cc(-c5cnn(C)c5)ccc4cn3)ccn2)CC1', '168753-222-R-J1-PDC complex spheroid viability', '> 8.02'),
  ('Nc1ccccc1NC(=O)c1ccc(CNC(=O)OCc2cccnc2)cc1 + CNC(=O)c1ccc(Nc2nc(OC3CCCC3)c3c(-c4ccc5nc(C)oc5c4)c[nH]c3n2)c(OC)c1', '168753-222-R-J1-PDC complex spheroid viability', '> 7.50');

Batch lookup, pIC50 per entry.
1. C=CC(=O)N1CCN(c2nc(=O)n(-c3c(C)ccnc3C(C)C)c3nc(-c4c(O)cccc4F)c(F)cc23)C(C)C1 (stereo unspecified) + CNC(=O)c1ccc(Nc2nc(OC3CCCC3)c3c(-c4ccc5nc(C)oc5c4)c[nH]c3n2)c(OC)c1
2. CC1COCCN1c1cc(C2(S(C)(=N)=O)CC2)nc(-c2ccnc3[nH]ccc23)n1 (stereo unspecified) + CNC(=O)c1ccc(Nc2nc(OC3CCCC3)c3c(-c4ccc5nc(C)oc5c4)c[nH]c3n2)c(OC)c1

1. > 7.50
2. > 7.50
